Test system: EKVX NSCLC
Assay summary: NCI tumour cell line growth inhibition, 48 h
This section presents molecules with their documented TGI values.

| Molecule | Assayed system | Units text | Prefix operator | TGI |
| --- | --- | --- | --- | --- |
| O=C1CCc2cc3c(cc21)CC1(Cc2cc4c(cc2C1)CCCC4)C3 | EKVX NSCLC | µM | > | 100 |
| C=C1C(=O)O[C@H]2[C@H]1CC/C(CNS(=O)(=O)c1cccc3ccccc13)=C\CC[C@@]1(C)O[C@@H]21 | EKVX NSCLC | µM | = | 10.3 |
| CS(=O)(=O)Nc1cc(-c2ccc3ncnc(Nc4ccc5c(cnn5Cc5ccccc5F)c4)c3c2)cnc1Cl | EKVX NSCLC | µM | = | 9.53 |
| [C-]#[N+]C1(C(=O)OCC)CC1 | EKVX NSCLC | µM | > | 100 |
| O=C(CN1C(=O)c2ccccc2C1=O)C(O)CN1C(=O)c2ccccc2C1=O (stereo not given) | EKVX NSCLC | µM | > | 100 |
| N#CN1CCC=C(c2cc3ccccc3[nH]2)C1 | EKVX NSCLC | µM | > | 448 |
| CC(C)c1ccc2[nH]c(O)c(C3=Nc4ccccc4C3=O)c2c1 | EKVX NSCLC | µM | = | 42.8 |
| CCSC(=O)/C=C1\CN(C(=O)OC(C)(C)C)C1C(=O)OC(C)(C)C (stereo not given) | EKVX NSCLC | µM | = | 26 |
| CN(C)c1ccc(N=Nc2cccc3ncccc23)cc1 | EKVX NSCLC | µM | > | 100 |
| Cc1ccc(C2=C(c3ccccc3)C(Br)(c3ccccc3)C(c3ccccc3)=C2c2ccc(C)cc2)cc1 | EKVX NSCLC | µM | > | 100 |

* * *

Test system: UACC-257 melanoma
Assay summary: NCI tumour cell line growth inhibition, 48 h
Endpoint name: TGI

| Molecule | Assayed system | Endpoint name | Result |
| --- | --- | --- | --- |
| COC(=O)C1(C)CCCC2(C)C3CCC4CC3(C=C4CO)CCC12 (stereo not drawn) | UACC-257 melanoma | TGI | > 100 µM |
| O=C(n1c(=O)n(-c2ccc(Cl)cc2)c(=O)n1C(=O)C(Cl)(Cl)Cl)C(Cl)(Cl)Cl | UACC-257 melanoma | TGI | > 100 µM |
| C=CCCCCCC(O)C(O)C/C=C\C/C=C\CC (stereo not drawn) | UACC-257 melanoma | TGI | > 18.8 µM |
| Cc1cccc2c1C(=O)OC2(C)c1cccc2ccccc12 (stereo not drawn) | UACC-257 melanoma | TGI | > 100 µM |
| COc1ccc2c(c1)OC(N)=C(C#N)C2c1ccc(F)cc1 (stereo not drawn) | UACC-257 melanoma | TGI | > 100 µM |
| Cc1ccc(/C(O)=C/c2nc3ccccc3[nH]c2=O)c(C)c1 | UACC-257 melanoma | TGI | > 75.9 µM |
| N#CC(NNC(=O)c1ccccc1O)c1ccccc1 (stereo not drawn) | UACC-257 melanoma | TGI | > 100 µM |
| CC(=O)N1N=C(c2c(O)ccc3ccccc23)CC1c1ccc(Cl)cc1 (stereo not drawn) | UACC-257 melanoma | TGI | > 100 µM |

* * *

Tested on: LOX IMVI melanoma
Assay summary: NCI tumour cell line growth inhibition, 48 h
Endpoint name: TGI

| Compound | Assayed system | Endpoint name | Result |
| --- | --- | --- | --- |
| Nc1ncc(CN2CCOCC2)c(-c2ccccc2O)n1 | LOX IMVI melanoma | TGI | > 100 µM |
| O=C(CCCCCCC(=O)Nc1ccc2c(c1)/C(=C/c1ccc[nH]1)C(=O)N2)NO | LOX IMVI melanoma | TGI | 2.08 µM |
| O=C(n1c(=O)n(-c2ccc(Cl)cc2)c(=O)n1C(=O)C(Cl)(Cl)Cl)C(Cl)(Cl)Cl | LOX IMVI melanoma | TGI | > 100 µM |
| O=C(NCP(=O)(O)O)c1cccnc1 | LOX IMVI melanoma | TGI | > 100 µM |
| Cc1ccc(S(=O)(=O)NC2=NS(=O)(=O)c3cc(C)c(Cl)cc3S2)cc1 | LOX IMVI melanoma | TGI | > 100 µM |
| CCOC1C=CCCO1 (stereo not given) | LOX IMVI melanoma | TGI | > 100 µM |
| Nc1nc(Cl)cc(NCCCCCCCCCCCCNc2cc(Cl)nc(N)n2)n1 | LOX IMVI melanoma | TGI | 14.5 µM |
| Cc1nn(C(=O)Cc2ccccc2)c2c1C(c1ccccc1[N+](=O)[O-])SC(N)=N2 (stereo not given) | LOX IMVI melanoma | TGI | > 100 µM |
| COc1cc(-c2oc(C=Nc3ccccc3)c([N+](=O)[O-])c2-c2ccc(O)c(OC)c2)ccc1O | LOX IMVI melanoma | TGI | > 100 µM |
| COC(=O)[C@@]1(O)C[C@H]2O[C@]1(C)n1c3ccccc3c3c4c(c5c6ccccc6n2c5c31)C(=O)NC4 | LOX IMVI melanoma | TGI | 1.21 µM |
| CCN(CC)CCC(=O)c1ccc(Oc2ccccc2)cc1 | LOX IMVI melanoma | TGI | 31.3 µM |
| CN(C)CCNC(=O)c1cc(-c2nccn2C)nc2ccccc12 | LOX IMVI melanoma | TGI | > 100 µM |
| O=C(CC(C(=O)c1cccs1)c1ccsc1)c1ccco1 (stereo not given) | LOX IMVI melanoma | TGI | > 100 µM |
| COc1cc(/C=C2/C(=O)NC(Cc3cc(OC)c(OC)c(C)c3OC)C(=O)N2Cc2ccccc2)c(OC)c(C)c1OC (stereo not given) | LOX IMVI melanoma | TGI | > 100 µM |
| C[CH2][Sn]([CH2]C)([O]C(=O)c1cccc(F)c1)[O][Sn]([CH2]C)([CH2]C)[O]C(=O)c1cccc(F)c1 | LOX IMVI melanoma | TGI | 29.6 µM |

* * *

Listing: TGI of selected molecules
System: M14 melanoma
Assay summary: NCI tumour cell line growth inhibition, 48 h
Endpoint name: TGI (µM)

| Molecule | Assayed system | Endpoint name | Prefix operator | Numeric readout |
| --- | --- | --- | --- | --- |
| COC(=O)C1(C)CCCC2(C)C3CCC4CC3(C=C4CO)CCC12 (stereo not drawn) | M14 melanoma | TGI | > | 100 |
| COc1ccc2c(c1)OC(N)=C(C#N)C2c1ccc(F)cc1 (stereo not drawn) | M14 melanoma | TGI | = | 44.2 |
| O=[N+]([O-])/C=C/COCc1cc2c(cc1Br)OCO2 | M14 melanoma | TGI | = | 29.9 |

* * *

Tested on: EKVX NSCLC
Assay summary: NCI tumour cell line growth inhibition, 48 h

| Compound | TGI |
| --- | --- |
| CN(C)/C=C/c1ccncc1 | > 100 µM |
| C[C@@H]1C[C@@]2(O[C@@H]2C)C(=O)O[C@@H]2CCN3CC=C(COC(=O)[C@]1(C)O)[C@H]23 | > 100 µM |
| CC(C)(c1ccc(OC#N)cc1)c1ccc(OC#N)cc1 | > 100 µM |
| Nc1cccc(C#Cc2cccc(C#Cc3cccc(N)n3)n2)n1 | > 100 µM |
| OC(C/C(=N\N=C(/CC(O)(C(F)(F)F)C(F)(F)F)c1ccccc1)c1ccccc1)(C(F)(F)F)C(F)(F)F | > 10 µM |
| CC[N+]1(C)CCC(O)(/C=C/c2ccc(Cl)cc2)C(C(=O)/C=C/c2ccc(Cl)cc2)C1 (configuration not stated) | > 57.3 µM |
| N#CC(C#N)=C1SCC(=O)CS1 | > 100 µM |

* * *

Test system: UO-31 renal
Assay summary: NCI tumour cell line growth inhibition, 48 h
The molecules listed here are annotated with their TGI.
Endpoint name: TGI

| Molecule | Assayed system | Endpoint name | Result |
| --- | --- | --- | --- |
| C/C(=C\CC[C@]1(C)OC(C)(C)OC1CC/C(C)=C/CO[Si](c1ccccc1)(c1ccccc1)C(C)(C)C)CC/C=C/CO[Si](C)(C)C(C)(C)C (stereo partly drawn) | UO-31 renal | TGI | > 100 µM |
| Nc1ncc(CN2CCOCC2)c(-c2ccccc2O)n1 | UO-31 renal | TGI | > 100 µM |
| Cc1ccc(N2C(=O)/C(=C/c3ccc(N(CCC#N)CCC#N)cc3C)N=C2c2cc([N+](=O)[O-])ccc2Cl)cc1 | UO-31 renal | TGI | > 100 µM |

* * *

Quick list: TGI per entry.
Test system: MOLT-4 leukemia
Assay summary: NCI tumour cell line growth inhibition, 48 h
Endpoint name: TGI (µM)

| Compound structure string | Units text | Prefix operator | Numeric readout |
| --- | --- | --- | --- |
| Oc1ccc(N=Nc2ccc(N=Nc3ccccc3)cc2)cc1 | µM | = | 11.9 |
| O=Cc1ccc(O)c2ncccc12 | µM | > | 38.8 |
| COc1cccc(C[C@H]2COC(=O)[C@]2(O)Cc2cccc(OC)c2)c1 | µM | > | 100 |
| COC(=O)[C@@]1(O)C[C@H]2O[C@]1(C)n1c3ccccc3c3c4c(c5c6ccccc6n2c5c31)C(=O)NC4 | µM | = | 0.825 |
| CS(=O)(=O)Nc1cc(-c2ccc3ncnc(Nc4ccc5c(cnn5Cc5ccccc5F)c4)c3c2)cnc1Cl | µM | = | 7.48 |
